Species: Homo sapiens
Experiment: Inhibition of TNFalpha-induced NFkappaB activation (unknown origin) expressed in mouse 3T3L1 cells at 10 ng/µl by luciferase reporter gene assay
Activity calls are given as the source filed them. The rule behind the calls is not given here.
Outcome (select one): 1 (yes) (active), 0 (no) (inactive)

• COc1ccc(CCCCCCCc2ccccc2O)cc1OC = 0 (no)

Field: outcome | Entry: COc1ccc(CCCCc2ccc(OC)cc2)cc1
0 (no)

Field: outcome | Entry: COc1cc(/C=C/C(=O)CC(=O)/C=C/c2ccc(O)c(OC)c2)ccc1O
1 (yes)

Field: outcome | Entry: COc1ccc(C/C=C/CCCCc2ccccc2O)cc1
0 (no)

Field: outcome | Entry: COc1ccc(CCCCCCCc2ccc(O)cc2)cc1
0 (no)

Field: outcome | Entry: COc1ccc(C/C=C/CCCCc2ccccc2O)cc1OC
0 (no)

----------
Molecular target: Prostaglandin E synthase (Mus musculus, UniProt Q9JM51)
Sequence (Q9JM51 whole entry): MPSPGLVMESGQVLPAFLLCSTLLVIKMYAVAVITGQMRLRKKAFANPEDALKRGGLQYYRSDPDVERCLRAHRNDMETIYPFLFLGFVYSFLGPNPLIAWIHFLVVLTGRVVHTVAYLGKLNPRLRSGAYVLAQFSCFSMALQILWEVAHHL
Assay: Inhibition of mPGES1 in mouse 3T3L1 cells assessed as reduction in PGE2 production after 1 hr by ELISA
TEST_READOUT: IC50 (µM)
Numeric answer only, unit µM assumed.

Illustrative cases are given below, each with its answer.
* COc1ccc(CCCCCCCc2ccccc2O)cc1OC | 17
* COc1ccc(CCCCCCCc2ccc(O)cc2)cc1OC | 29
* COc1ccc(C/C=C/CCCCc2ccc(O)cc2)cc1OC | 1.7

Next item in the queue.
Output measured IC50 for this item: COc1ccc(C/C=C/Cc2ccc(OC)cc2)cc1
12
